# Test System: NADPH oxidase 2 (Homo sapiens) (UniProt P04839)
# Sequence (P04839 whole entry, looked up): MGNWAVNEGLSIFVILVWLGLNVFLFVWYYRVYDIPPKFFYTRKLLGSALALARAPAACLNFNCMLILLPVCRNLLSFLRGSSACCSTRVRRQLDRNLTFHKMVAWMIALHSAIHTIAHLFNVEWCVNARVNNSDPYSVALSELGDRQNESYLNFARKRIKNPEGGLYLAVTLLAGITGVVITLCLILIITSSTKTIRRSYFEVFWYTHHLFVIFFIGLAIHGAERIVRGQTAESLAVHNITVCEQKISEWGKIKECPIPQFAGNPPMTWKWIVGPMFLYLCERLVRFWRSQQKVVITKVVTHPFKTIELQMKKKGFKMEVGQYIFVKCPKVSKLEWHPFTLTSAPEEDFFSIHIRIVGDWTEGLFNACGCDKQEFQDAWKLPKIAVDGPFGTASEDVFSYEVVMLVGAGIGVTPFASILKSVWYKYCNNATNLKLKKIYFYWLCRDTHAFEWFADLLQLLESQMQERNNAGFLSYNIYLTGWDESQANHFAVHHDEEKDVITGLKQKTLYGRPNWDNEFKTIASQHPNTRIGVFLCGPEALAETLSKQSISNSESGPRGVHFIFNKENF
# Experimental Details: NOX2-dependent H2O2 signal modulators, primary screen, NOX inhibitor project, cell-based, HEK293-NOX2, PMA-stimulated, Amplex Red fluorescence (AID 1159); also: test concentration not given here
# Setup Conditions: 45 min, higher = more signal, called active from +8 up or from −8 down
Assign z-score to each entry below.
Give the figure by itself; no unit, no explanation.

Supply measured z-score of O=C1O[C@H](c2ccccc2)[C@H](c2ccccc2)N2[C@H]1[C@@H](C(=O)NC[C@H](O)c1ccccc1)[C@]1(C(=O)Nc3ccc(C#CCCO)cc31)[C@H]2c1ccccc1OCCO in your reply.
2.14

Determine its reported z-score: Cc1ccc(F)cc1S(=O)(=O)N[C@@H]1CCN(Cc2ccc3[nH]ccc3c2)C1
-0.163

Read off the recorded z-score for C=C(COC)C(=O)CC[C@@H](OC(=O)c1cccnc1)c1cccc(OCCO)c1
-3.15

Check the records and state z-score for COCCOC(=O)N1C(=O)[C@@]2(c3cc(C#CC4(O)CCCCCC4)ccc31)[C@H](c1ccccc1OCCO)N1[C@H](c3ccccc3)[C@H](c3ccccc3)OC(=O)[C@H]1[C@@H]2C(=O)N1CCCCCCC1
0.297

Identify measured z-score associated with CC(C)(C)N1CC=CC23O[C@@H]4/C=C\CCCOC(=O)C4[C@H]2C(=O)N(CCCCCCO)[C@@H]3C1=O (stereo partly drawn)
0.834

Note down z-score recorded for CN(C)C(=O)[C@@]1(CCS(=O)(=O)c2ccccc2)N=C(c2ccc(OCCCO)cc2)O[C@H]1c1ccccc1N=[N+]=[N-]
-2.01

In one line, give reported z-score of the entry COC(=O)[C@@]1(Cc2ccc(F)cc2)[C@H]2c3cc(C(=O)N(C)C)n(CCN4CCOCC4)c3C[C@H]2CN1C(=O)c1ccccc1 .
0.482

Please report the measured z-score for CCCCC(=C=CC[C@@H](O)c1cccc(OCCO)c1)CCO
-0.681

----------
# Experimental Details: small-molecule binders of probe aNOTCH3, primary screen, biochemical, small-molecule microarray, 635/667 nm fluorescence (AID 1120);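 also: probe is a biotin-tagged antibody raised against NOTCH3 rather than NOTCH3 protein; score merges spot fluorescence near 667 nm with spot signal to noise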
# Setup Conditions: higher = more signal
Measure: composite z-score
# output: bare number, no unit

Tell me measured composite z-score for CCCCNC(=O)c1ccc(C#C[Si](C)(C)C)c(OC(C)=O)c1 please.
-0.0328

Hello, please tell me recorded composite z-score for this one: CC(C)CNC(=O)[C@@H]1c2ccccc2C(=O)N(C2Cc3ccccc3C2)[C@H]1c1ccc(CO)cc1
-0.219

Could you please provide reported composite z-score for Cc1ccc(S[C@]2(C(=O)NCCCN(C)C)CC(=O)N(Cc3ccccc3Cl)[C@@H]2c2ccc(CO)cc2I)cc1 ? Thanks!
-0.136

Tell me measured composite z-score for COCC(=C=CC[C@@H](O)c1ccc(OCCO)cc1)C[C@@H](O)COCc1ccccc1 please.
0.0528

Fill in composite z-score for record CN(C)C(=O)[C@]1(Cc2ccccc2CN=[N+]=[N-])N=C(c2ccc(OCCCO)cc2)O[C@@H]1c1ccccc1N=[N+]=[N-]
-0.155

Entry COCCOC(=O)N1C(=O)[C@@]2(c3cc(C#CCCO)ccc31)[C@H](c1ccc(O)cc1)N1[C@H](c3ccccc3)[C@H](c3ccccc3)OC(=O)[C@H]1[C@@H]2C(=O)N1CCc2cc(OC)c(OC)cc2C1 needs its composite z-score filled in; supply it.
0.341

State its composite z-score: C#CCN([C@H](/C=C/C1CC1)[C@@H](O)Cc1ccccc1)[C@@H](Cc1ccccc1)C(=O)OC
0.15

For the compound COc1ccc([Si](C)(C)[C@H]2[C@H](CCO)O[C@@]3(C(=O)N(Cc4ccccc4)c4ccc(N(C=O)c5ccccc5)cc43)[C@@H]2C)cc1 , report composite z-score.
0.0576

Supply reported composite z-score belonging to this compound: COCC1=C([C@H](O)CCc2ccccc2)[C@H](CO)n2c(=O)n(-c3ccccc3)c(=O)n2C1
-0.0014

Write down composite z-score measured for item CC(=O)NCCCC[C@@H]1NC(=O)[C@H]2C[C@@H](C(=O)NCCCCCC[N+](C)(C)C)[C@@H](c3ccc(O)cc3)N2C1=O
-0.0057

Look up and state reported composite z-score for COCCOC(=O)N1C(=O)[C@@]2(c3cc(C#CC4(O)CCCCCC4)ccc31)[C@H](C(=O)N1CCc3cc(OC)c(OC)cc3C1)[C@H]1C(=O)O[C@H](c3ccccc3)[C@H](c3ccccc3)N1[C@@H]2c1ccc(O)cc1
0.163

Give the reported composite z-score for this compound. O=C1O[C@H](c2ccccc2)[C@H](c2ccccc2)N2[C@H]1[C@@H](C(=O)N1CCN(c3ncccn3)CC1)[C@]1(C(=O)Nc3ccccc31)[C@H]2c1ccc(O)cc1
-0.0932

Quote composite z-score reported for COc1ccc([Si](C)(C)[C@H]2[C@H](CCO)O[C@@]3(C(=O)N(Cc4ccc(N5CCOC5=O)cc4)c4ccccc43)[C@@H]2C)cc1 please.
-0.0697

Look up and state reported composite z-score for C=CCN1C(=O)[C@]2(O[C@H](CCn3cc([C@H](O)c4ccccc4)nn3)[C@@H]([Si](C)(C)c3ccc(OC)cc3)[C@@H]2C)c2cc(N3C(=O)c4cccc5cccc3c45)ccc21
-0.141

----------
# Experimental Details: small-molecule microarray binders of probe aEGFR, primary screen, biochemical, biotinylated probe, 635/667 nm fluorescence (AID 1097);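 also: probe is a biotinylated anti-EGFR antibody binding compounds printed on slides; score combines fluorescence near 667 nm and signal to noise of each spot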
# Setup Conditions: higher = more signal
I'd be grateful if you could share measured composite z-score for these entries.
// print number alone

Tell me measured composite z-score for C=CCOC(=O)[C@H]1[C@@H]2C(=O)O[C@@H](c3ccccc3)[C@@H](c3ccccc3)N2[C@@H](c2ccc(OCCOC(=O)[C@@H]3C[C@@H]4C(=O)N[C@@H](CC(C)C)C(=O)N4[C@@H]3c3ccc(O)cc3)cc2)[C@]12C(=O)Nc1ccc(I)cc12 please.
0.006

Give the reported value of composite z-score for this record: COCCCNC(=O)[C@@H]1c2ccccc2C(=O)N(C2CCCCC2)[C@H]1c1ccc(CO)cc1
-0.257

Item CC(C)C[C@H]1NC(=O)[C@H](Cc2ccccc2)NC(=O)[C@@]23C(=O)N[C@@H](Cc4ccccc4)C2[C@H](C)[C@@]2(C)O[C@H]2C3/C=C/C/C=C\CNC1=O (stereo partly drawn) : provide composite z-score
-0.0968

----------
# Experimental Details: modulators of S6 phosphorylation in cells, primary screen, cell-based, A549, cytoblot, luminescence, serum-stimulated (AID 1158);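 also: serum-stimulated A549 lung adenocarcinoma cells; signal is phosphorylated S6 detected by cytoblot immunostaining with HRP secondary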
# Setup Conditions: A549 phospho-S6 cytoblot, 5 h, higher = more signal
For each of the compounds below, state its z-score.

Dear colleague, please send me the reported z-score for C=CC[C@]1(C(=O)NCCCOC)N=C(c2ccc(OCCCO)cc2)O[C@H]1c1ccccc1 when you can.
0.727

Specify z-score for CC(c1ccccc1)C(O)C1C=CC2C(=O)N(c3ccccc3)C(=O)C2N1Nc1ccc(C#N)cc1 (stereo unspecified) and stop.
1.38

Note z-score for the compound shown: CC(C)C[C@@H]1NC(=O)[C@@H]2C[C@H](C(=O)NCCCC[N+](C)(C)C)[C@H](c3ccc(O)cc3)N2C1=O
0.145

State its z-score: CC(C)(C)OC(=O)CC[C@]1(C(N)=O)N=C(c2ccc(OCCCO)cc2)O[C@H]1c1ccccc1CN=[N+]=[N-]
0.0054

State its z-score for this compound: COCCOC(=O)N1C(=O)[C@@]2(c3cc(C#Cc4ccc(OC)cc4)ccc31)[C@H](C(=O)Nc1nc3ccccc3s1)[C@H]1C(=O)O[C@H](c3ccccc3)[C@H](c3ccccc3)N1[C@@H]2c1ccccc1OCCO
0.486

Give the reported z-score for this compound. COCCOC(=O)N1C(=O)[C@@]2(c3cc(C#Cc4ccc(OC)cc4)ccc31)[C@H](C(=O)N1CCCCCCC1)[C@H]1C(=O)O[C@H](c3ccccc3)[C@H](c3ccccc3)N1[C@@H]2c1ccccc1OCCO
-0.17

----------
Record form. Attribute: z-score. Fill in for each entry.
# Experimental Details: PSAC antagonists in infected red cells, primary screen, cell-based, P. falciparum Indochina, OD700, 18 h (AID 1157)
# Setup Conditions: P. falciparum Indochina infected erythrocytes, osmotic lysis OD700, 18 h; higher = more signal, called active from +8 up or from −8 down
Output spec: single numeric token, no unit.

Identify z-score associated with the compound CC(=O)NCCCC[C@@H]1NC(=O)[C@@H]2C[C@H](C(=O)NCCCCCC[N+](C)(C)C)[C@H](c3ccc(O)cc3)N2C1=O
0.0574

Note down z-score recorded for CCCCC(=C=CC[C@@H](O)c1cccc(OCCO)c1)C[C@@H](O)COCc1ccccc1
-1.07

Please look at this compound and report its z-score: COCCOC(=O)N1C(=O)[C@@]2(c3cc(C#CC4=CCCCC4)ccc31)[C@H](c1ccc(OCCO)cc1)N1[C@H](c3ccccc3)[C@H](c3ccccc3)OC(=O)[C@H]1[C@@H]2C(=O)N1CCCCCCC1
-0.521

Report z-score for CC(C)CNC(=O)[C@@H]1c2ccccc2C(=O)N(C2Cc3ccccc3C2)[C@H]1c1ccc(CO)cc1
0.232

Recall and state the measured z-score for CCCC[C@@H]1C[C@H]1[C@@H](NC(=O)Cc1ccccc1)c1ccc(Cl)cc1 .
1.53

Quote z-score reported for CC(C)N1CC=CC23O[C@@H]4C=CCCOC(=O)C4[C@H]2C(=O)N(CCCCCO)[C@@H]3C1=O (some centres undefined) please.
0.455

Please report z-score for the following compound: COc1ccccc1CN1C(=O)c2ccccc2[C@](Cc2ccccc2I)(C(=O)NCCCN(C)C)[C@@H]1c1ccc(CO)cc1
-0.379

Specify z-score for CCCCCCc1nc(-c2ccc(OC)nc2)cc2c1[Si](C(C)C)(C(C)C)OC2 and stop.
-0.179

State, in one line, measured z-score of O=C(NCCO)C1=C[C@H](Oc2ccccc2I)[C@@H](O)[C@H](NCc2ccc(F)cc2)C1
1.11

Given the compound C[C@H]1NC(=O)C([C@@H](C)OCc2ccccc2)NC(=O)[C@@]23C(=O)N[C@@H](Cc4ccccc4)C2[C@H](C)[C@@]2(C)O[C@H]2C3/C=C/C/C=C\CNC1=O (some centres undefined) , write its reported z-score.
0.427

Identify measured z-score associated with C=CC[C@]1(C(=O)N(C)C)COC(c2ccc(OCCCO)cc2)=N1
0.0256

Answer with the recorded z-score of CCCC=C(CCC)[C@@H](NS(=O)(=O)c1ccc(Cl)cc1)c1ccccc1 only.
0.814

Please give the documented z-score of CC1(C)OC[C@@]23C=C(Br)[C@@H](C[C@H]12)[C@@]1(CO1)C3=O
-0.0371

Give z-score for O=C1OCCC=C[C@H]2OC34C=CCN(CCN5CCOCC5)C(=O)[C@H]3N(CCCO)C(=O)[C@@H]4C12 (some centres undefined)
-1.73

All values here come from PubChem BioAssay.
